IC50, Mu-type opioid receptor (Homo sapiens), per-entry values.

Input smiles: CC(C)C[C@@H](NC(=O)[C@@H](Cc1ccccc1)NC(=O)[C@H](N)Cc1ccccc1)C(=O)N[C@H](CCCCN)C(=O)N1CCC(O)(CO)CC1
System name: Mu-type opioid receptor (Homo sapiens)
Recorded result: > 10 µM

Input smiles: CC(C)C[C@@H](NC(=O)[C@@H](Cc1ccccc1)NC(=O)[C@H](N)Cc1ccccc1)C(=O)N[C@H](CCCCN)C(=O)NCCC[C@H](N)C(=O)O
System name: Mu-type opioid receptor (Homo sapiens)
Recorded result: > 10 µM

Consider the record given below.
Give the observed IC50 of COC(=O)C1(N)CCN(C(=O)[C@@H](CCCCN)NC(=O)[C@@H](CC(C)C)NC(=O)[C@@H](Cc2ccccc2)NC(=O)[C@H]2Cc3ccccc3CN2)CC1 for Mu-type opioid receptor (Homo sapiens).
> 10 µM

* * *

Reported pIC50 values for the following compounds.
# System name: Kappa-type opioid receptor (Homo sapiens, UniProt P41145)
# Sequence (P41145 whole entry): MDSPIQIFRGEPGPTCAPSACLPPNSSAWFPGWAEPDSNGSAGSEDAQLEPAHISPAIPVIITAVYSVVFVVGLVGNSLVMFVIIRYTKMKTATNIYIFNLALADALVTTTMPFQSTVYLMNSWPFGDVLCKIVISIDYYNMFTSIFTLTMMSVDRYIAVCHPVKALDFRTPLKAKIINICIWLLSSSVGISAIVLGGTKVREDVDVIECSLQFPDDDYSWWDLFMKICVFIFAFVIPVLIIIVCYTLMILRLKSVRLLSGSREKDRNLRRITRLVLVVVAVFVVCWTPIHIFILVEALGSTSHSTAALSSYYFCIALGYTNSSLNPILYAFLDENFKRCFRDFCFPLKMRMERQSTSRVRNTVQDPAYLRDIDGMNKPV
# Assay text: Opioid Receptor Binding Assay
Notebook: values listed as pIC50 are -log10 of the concentration (mol/L).

Compound: CC(C)C[C@@H](NC(=O)[C@@H](Cc1ccccc1)NC(=O)[C@H](N)Cc1ccccc1)C(=O)N[C@H](CCCCN)C(=O)NCCC[C@H](N)C(=O)O [US12215173, Compound 13-44]
System name: Kappa-type opioid receptor (Homo sapiens, UniProt P41145)
pIC50: 9.34

Compound: COC(=O)C1(N)CCN(C(=O)[C@@H](CCCCN)NC(=O)[C@@H](CC(C)C)NC(=O)[C@@H](Cc2ccccc2)NC(=O)[C@H](N)Cc2ccc(C(F)(F)F)cc2)C1 (stereo not given in full) [US12215173, Compound 194]
System name: Kappa-type opioid receptor (Homo sapiens, UniProt P41145)
pIC50: 8.39

Compound: COC(=O)C1(N)CCN(C(=O)[C@@H](CCCCN)NC(=O)[C@H](NC(=O)[C@@H](Cc2ccccc2)NC(=O)[C@H](N)Cc2ccccc2)C(C)(C)C)CC1 [US12215173, Compound 100]
System name: Kappa-type opioid receptor (Homo sapiens, UniProt P41145)
pIC50: 7.89

Compound: COC(=O)C1(N)CCN(C(=O)[C@@H](CCCCN)NC(=O)[C@@H](CC(C)C)NC(=O)[C@@H](Cc2ccccc2)NC(=O)[C@H](N)Cc2ccc(F)cc2)CC1 [US12215173, Compound 184]
System name: Kappa-type opioid receptor (Homo sapiens, UniProt P41145)
pIC50: 9.60

Respond only with pIC50 recorded for COC(=O)C1(N)CCN(C(=O)[C@@H](CCCCN)NC(=O)[C@@H](CC(C)C)NC(=O)[C@@H](Cc2ccccc2)NC(=O)[C@H](N)Cc2ccc(F)cc2)C1 (stereo not given in full) [US12215173, Compound 181]
9.40

* * *

pIC50 overview
# System name: Mu-type opioid receptor (Homo sapiens, UniProt P35372)
# Sequence (P35372 whole entry): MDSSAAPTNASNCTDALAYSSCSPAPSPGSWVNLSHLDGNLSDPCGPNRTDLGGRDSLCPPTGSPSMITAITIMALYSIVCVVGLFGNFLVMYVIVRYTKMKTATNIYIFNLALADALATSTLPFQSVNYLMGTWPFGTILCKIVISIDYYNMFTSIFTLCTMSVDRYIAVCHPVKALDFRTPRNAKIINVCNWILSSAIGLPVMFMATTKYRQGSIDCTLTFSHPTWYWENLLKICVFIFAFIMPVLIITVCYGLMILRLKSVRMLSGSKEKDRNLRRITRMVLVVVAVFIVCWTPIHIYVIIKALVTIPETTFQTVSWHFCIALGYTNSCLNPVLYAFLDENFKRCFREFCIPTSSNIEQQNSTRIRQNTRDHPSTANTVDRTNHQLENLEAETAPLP
# Assay text: Opioid Receptor Binding Assay
pIC50: −log10 of the molar value.

// below: answered compounds
Compound: COC(=O)C1(N)CCN(C(=O)[C@@H](CCCCN)NC(=O)[C@@H](CC(C)C)NC(=O)[C@@H](Cc2ccccc2)NC(=O)[C@H](N)Cc2ccc(F)cc2)CC1
System name: Mu-type opioid receptor (Homo sapiens, UniProt P35372)
Recorded result: 5.09

Compound: COC(=O)C1(N)CCN(C(=O)[C@@H](CCCCN)NC(=O)[C@@H](CC(C)C)NC(=O)[C@@H](Cc2ccccc2)NC(=O)[C@H](N)Cc2ccc(C(F)(F)F)cc2)C1 (some centres not stated)
System name: Mu-type opioid receptor (Homo sapiens, UniProt P35372)
Recorded result: 5.13

Compound: CC(C)C[C@@H](NC(=O)[C@@H](Cc1ccccc1)NC(=O)[C@H]1Cc2ccccc2CN1)C(=O)N[C@H](CCCCN)C(=O)N1CCC(N)(C(=O)O)CC1
System name: Mu-type opioid receptor (Homo sapiens, UniProt P35372)
Recorded result: < 5.00

Compound: COC(=O)C1(N)CCN(C(=O)[C@@H](CCCCN)NC(=O)[C@H](NC(=O)[C@@H](Cc2ccccc2)NC(=O)[C@H](N)Cc2ccccc2)C(C)(C)C)C1 (some centres not stated)
System name: Mu-type opioid receptor (Homo sapiens, UniProt P35372)
Recorded result: < 5.00

Compound: CC(C)C[C@@H](NC(=O)[C@@H](Cc1ccccc1)NC(=O)[C@H](N)Cc1ccccc1)C(=O)N[C@H](CCCCN)C(=O)NCc1cccc(C(=O)O)n1
System name: Mu-type opioid receptor (Homo sapiens, UniProt P35372)
Recorded result: < 5.00

Compound: COC(=O)C1(N)CCN(C(=O)[C@@H](CCCCN)NC(=O)[C@H](NC(=O)[C@@H](Cc2ccccc2)NC(=O)[C@H](N)Cc2ccccc2)C(C)(C)C)CC1
System name: Mu-type opioid receptor (Homo sapiens, UniProt P35372)
Recorded result: < 5.00

Give recorded pIC50. COC(=O)C1(N)CCN(C(=O)[C@@H](CCCCN)NC(=O)[C@@H](CC(C)C)NC(=O)[C@@H](Cc2ccccc2)NC(=O)[C@H](N)Cc2ccc(F)cc2)C1 (some centres not stated)
< 5.00
